# Target of assay: human P2Y12 receptor (Homo sapiens, UniProt Q9H244)
# Sequence (Q9H244 whole entry): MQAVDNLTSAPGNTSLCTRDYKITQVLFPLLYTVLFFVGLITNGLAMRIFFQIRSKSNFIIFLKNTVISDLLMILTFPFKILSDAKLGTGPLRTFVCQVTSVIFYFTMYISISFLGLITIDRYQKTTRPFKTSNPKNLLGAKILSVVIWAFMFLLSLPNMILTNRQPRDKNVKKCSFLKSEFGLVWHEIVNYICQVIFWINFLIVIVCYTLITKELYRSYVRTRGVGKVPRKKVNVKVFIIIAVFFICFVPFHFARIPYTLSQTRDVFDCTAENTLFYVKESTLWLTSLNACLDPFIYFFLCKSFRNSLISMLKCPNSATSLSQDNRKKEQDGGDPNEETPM
# Test: P2Y12 receptor binding assay (displacement of tritium-labeled 2-methyl-S-ADP on CHO cells)
# Condition details: CHO cells with recombinant human P2Y12 receptor, 2 hours at room temperature
pIC50: −log10 of the molar value.
Measured attribute: pIC50

Mol | Target of assay | pIC50
CCCOc1ccc(C=C2C(=O)NN(c3ccccc3)C2=O)c(OCCCCO)c1C | human P2Y12 receptor (Homo sapiens, UniProt Q9H244) | 8.30
CCCOc1ccc(C=C2C(=O)NN(C(C)=O)C2=O)c(C)c1C | human P2Y12 receptor (Homo sapiens, UniProt Q9H244) | 5.02
CCCOc1ccc(C=C2C(=O)NN(c3ccccc3)C2=O)c(OCCOC)c1C | human P2Y12 receptor (Homo sapiens, UniProt Q9H244) | 7.82
CCCOc1ccc(C=C2C(=O)NN(c3ccc(F)cc3)C2=O)c(C)c1C | human P2Y12 receptor (Homo sapiens, UniProt Q9H244) | 7.08
CCCOc1ccc(C=C2C(=O)NN(c3ccccc3)C2=O)c2cnccc12 | human P2Y12 receptor (Homo sapiens, UniProt Q9H244) | 8.00
CCCOc1ccc(C=C2C(=O)NN(c3ccccc3)C2=O)c(OC[C@H](O)CC(=O)O)c1C | human P2Y12 receptor (Homo sapiens, UniProt Q9H244) | 9.00
CCCOc1ccc(C=C2C(=O)NN(c3ccccc3)C2=O)c2c1CCCC2 | human P2Y12 receptor (Homo sapiens, UniProt Q9H244) | 7.52
CCCOc1ccc(C=C2C(=O)NN(c3ccccc3)C2=O)c(OC[C@H](O)[C@@H](O)C(=O)O)c1C | human P2Y12 receptor (Homo sapiens, UniProt Q9H244) | 8.52
COc1ccc(C=C2C(=O)NN(c3ccccc3)C2=O)c(C)c1C | human P2Y12 receptor (Homo sapiens, UniProt Q9H244) | 6.72
CCCOc1ccc(C=C2C(=O)NN(c3ccccc3)C2=O)c(OC[C@@H](O)CC(=O)O)c1C | human P2Y12 receptor (Homo sapiens, UniProt Q9H244) | 9.10

1. CCCOc1ccc(C=C2C(=O)NNC2=O)c(OCCC)c1C
2. CCCOc1ccc(C=C2C(=O)NN(c3ccccc3)C2=O)c(OCCC)n1
3. CCCOc1ccc(C=C2C(=O)NN(c3ccccc3)C2=O)c(C)c1C
4. CCCOc1ccc(C=C2C(=O)NN(c3ccccc3)C2=O)c(OCCCCC(=O)O)c1C
Exercise: Rank the 4 compounds: largest pIC50 first, smallest last. Note for the reader: the ranking is given by listing the labels in the order requested.
Solution: 4, 3, 1, 2
(4: 8.80, 3: 7.62, 1: 7.40, 2: 6.43)

A. CCCOc1ccc(C=C2C(=O)NNC2=O)c2c1CCCC2
B. CCOc1ccc(C=C2C(=O)NN(c3ccccc3)C2=O)cc1C
C. CCCOc1ccc(C=C2C(=O)NN(c3ccccn3)C2=O)c(C)c1C
Exercise: Rank the 3 compounds: largest pIC50 first, smallest last. Note for the reader: the ranking is given by listing the labels in the order requested.
Solution: A, C, B
